System: lipid-peroxide formation in cerebral homogenate
assay explanation: Lipid-peroxide formation inhibiting activity (TBA method, cerebral homogenate)
Type: biochemical, Wistar strain male rat
assay setup: rat cerebral homogenate, incubated 30 minutes at 37° C
Kindly state log10(IC50) for each of the entries shown.
Reminder: these figures are log10 of reported IC50, in µM before transformation.

Task item: Query: log10(IC50); subject: "Cc1cccc(N2N=C(Cn3ccnc3)CC2=O)c1"
Reply: 1.78

Task item: Query: log10(IC50); subject: "O=C1CC(Cc2cccnc2)=NN1c1ccc(Cl)cc1"
Reply: 0.61

Task item: Query: log10(IC50); subject: CC1C(=O)N(c2ccccn2)N=C1c1cccnc1 (stereo not drawn)
Reply: 1.09

Task item: Query: log10(IC50); subject: "COc1ccc(N2N=C(c3cccnc3)CC2=O)cc1"
Reply: 1.57

Task item: Query: log10(IC50); subject: "O=C1CC(c2ccco2)=NN1c1ccccn1"
Reply: 1.19

Task item: Query: log10(IC50); subject: "O=C1CC(c2cccnc2)=NN1c1nc2ccccc2s1"
Reply: 1.92

Task item: Query: log10(IC50); subject: "O=C1CC(c2ccco2)=NN1c1ccccc1"
Reply: 0.63

Task item: Query: log10(IC50); subject: "O=C1CC(c2cccnc2)=NN1c1ccc(Cl)cc1"
Reply: 0.63

Task item: Query: log10(IC50); subject: "CCOC(=O)Cc1ccc(N2N=C(c3cccnc3)CC2=O)cc1"
Reply: 1.13

Task item: Query: log10(IC50); subject: "CCOc1ccc(N2N=C(c3cccnc3)CC2=O)cc1"
Reply: 1.11

Task item: Query: log10(IC50); subject: "O=C1CC(Cc2cccnc2)=NN1c1ccccn1"
Reply: 0.79

Task item: Query: log10(IC50); subject: CC1C(=O)N(c2ccccc2)N=C1c1cccnc1 (stereo not drawn)
Reply: 1.59

Task item: Query: log10(IC50); subject: "O=C1CC(Cc2cccnc2)=NN1c1ccccc1"
Reply: 1.21

Task item: Query: log10(IC50); subject: "CCOc1ccc(N2N=C(Cc3cccnc3)CC2=O)cc1"
Reply: 1.09

Task item: Query: log10(IC50); subject: "COc1ccc(N2N=C(c3ccco3)CC2=O)cc1"
Reply: 0.81

Task item: Query: log10(IC50); subject: "Cc1ccc(N2N=C(c3cccnc3)CC2=O)cc1"
Reply: 1.01

Task item: Query: log10(IC50); subject: "Cc1ccc(N2N=C(Cc3cccnc3)CC2=O)cc1"
Reply: 0.87

Task item: Query: log10(IC50); subject: CC1C(=O)N(C2CCCCC2)N=C1c1cccnc1 (stereo not drawn)
Reply: 1.47

Task item: Query: log10(IC50); subject: "CCOC(=O)c1ccc(N2N=C(Cn3ccnc3)CC2=O)cc1"
Reply: 1.55

Task item: Query: log10(IC50); subject: CCCC1C(=O)N(c2ccccc2)N=C1c1cccnc1 (stereo not drawn)
Reply: 1.45

Task item: Query: log10(IC50); subject: CCC1C(=O)N(c2ccc(C)cc2)N=C1Cn1ccnc1 (stereo not drawn)
Reply: 1.58
